Target: T1, human Trop-2-His (human, UniProt P09758 27-274, limits assumed)
T1 construct: by analogy with the macaque construct it is probably the extracellular domain with a His tag; also called Trop-2-His protein
T1 sequence: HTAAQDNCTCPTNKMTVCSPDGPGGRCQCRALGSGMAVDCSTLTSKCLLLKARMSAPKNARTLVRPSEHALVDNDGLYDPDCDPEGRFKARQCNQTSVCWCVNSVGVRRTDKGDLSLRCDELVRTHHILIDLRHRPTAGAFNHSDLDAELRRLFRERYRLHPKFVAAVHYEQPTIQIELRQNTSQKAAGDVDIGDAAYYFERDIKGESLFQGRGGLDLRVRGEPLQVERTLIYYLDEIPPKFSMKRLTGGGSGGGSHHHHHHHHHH
Assay: SPR (Biacore 8K), antibody captured, Trop-2-His as analyte
Consider the following binders; for each one, report its koff.
Field note: include the unit after the figure.

Per the record, hz-Ab2-1.2 (antibody, human IgG1, kappa, V domains shown, Humanized antibody) VH: EVQLVESGPGLIQPGGSLRLSCAVSGFSLTYYGIDWVRQPPGKGLEWVGVIWGSGNTKYNYALKSRLTISKDNSKSTLYLQMNSLRAEDTAVYYCARFYEGFAYWGQGTLVTVSS VL: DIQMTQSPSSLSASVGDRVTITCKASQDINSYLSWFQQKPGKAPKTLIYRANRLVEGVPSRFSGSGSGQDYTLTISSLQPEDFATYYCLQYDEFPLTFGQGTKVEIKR has koff of 0.00508 s⁻¹

Per the record, hz-Ab2-2.3 (antibody, human IgG1, kappa, V domains shown, Humanized antibody) VH: QVQLQESGPGLVKPSETLSLTCTVSGFSLTYYGIDWIRQPPGKGLEWIGVIWGSGNTKYNSALKSRVTISKDNSKSQFSLKLSSVTAADTAVYYCARFYEGFAYWGQGTLVTVSS VL: DIQMTQSPSSLSASVGDRVTITCRASQDINSYLSWFQQKPGKAPKTLIYRANRLVEGVPSRFSGSGSGQDFTLTISSLQPEDFATYYCLQYDEYPLTFGQGTKVEIKR has koff of 0.000643 s⁻¹

Per the record, hz-Ab35-2.1 (antibody, human IgG1, kappa, V domains shown, Humanized antibody) VH: QVQLVQSGAEVKKPGASVKVSCKASGYTFTSSDINWVRQRPGQGLEWMGWIYPRDGSKKYAQKFQGRVTMTVDTSTSTVYMELSSLRSEDTAVYYCATRFATVVSNYGLDPWGQGTLVTVSS VL: EIVLTQSPATLSLSPGERATLSCSASSSVNYIYWYQRKPGQAPRLLIYDTSNLASGIPARFSGSGSGTDYTLTISSLEPEDFAVYYCQQWNSYPLTFGQGTKVEIKR has koff of 0.000194 s⁻¹

Per the record, hz-Ab21-2.2 (antibody, human IgG1, kappa, V domains shown, Humanized antibody) VH: EVQLVESGGGLVKPGGSLRLSCAASGFTLRNYGVHWVRQAPGKGLEWVGVIWSSGTTDYNAAFISRFTISKDNSKNTLYLQMNSLKTEDTAVYYCTRDGDYDYYTMDYWGQGTLVTVSS VL: EIVLTQSPATLSLSPGERATLSCRASKSVSTSAYSYIHWYQQKPGQPPRLLIYLTSNLESGIPARFSGSGSGTDFTLTISSLEPEDFAVYYCQHSRELPYTFGQGTKVEIKR has koff of 0.000611 s⁻¹

Per the record, hz-Ab2-1.1 (antibody, human IgG1, kappa, V domains shown, Humanized antibody) VH: EVQLVESGGGLIQPGGSLRLSCAVSGFSLTYYGIDWVRQPPGKGLEWVSVIWGSGNTKYNSALKSRLTISRDNSKSTLYLQMNSLRAEDTAVYYCARFYEGFAYWGQGTLVTVSS VL: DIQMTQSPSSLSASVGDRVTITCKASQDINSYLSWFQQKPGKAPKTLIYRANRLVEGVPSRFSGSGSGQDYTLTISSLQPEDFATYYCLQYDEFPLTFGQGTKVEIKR has koff of 0.0029 s⁻¹
